# Test Name: method code SF-HPLC, from DOI: 10.1016/b978-0-08-029222-9.50040-8
Where logP equals or exceeds 3, the correct label is 1; where it does not, the label is 0.

Worked cases, answers included:
1. CCCCCCC(=O)N(SN(C)C(=O)ON=C(C)SC)c1ccccc1
1
2. CCC(=O)N(C)SN(C)C(=O)Oc1cccc2c1OC(C)(C)C2
1
3. CS/C(C)=N\OC(=O)N(C)SN(C)C(=O)c1ccc(C)cc1
0

### Prompt Reported logP at or above 3? `CSC(C)=NOC(=O)N(C)SN(C)C(=O)C1CC1`
### Response 0

### Prompt Reported logP at or above 3? `CCCCN(SN(C)C(=O)ON=C(C)SC)C(=O)c1ccccc1`
### Response 1

### Prompt Reported logP at or above 3? `CCCCOC(=O)N(CCCC)SN(C)C(=O)ON=C(C)SC`
### Response 1

### Prompt Reported logP at or above 3? `CN(SN(C)C(=O)OC(C)(C)C)C(=O)Oc1cccc2c1OC(C)(C)C2`
### Response 1

### Prompt Reported logP at or above 3? `CSC(C)=NOC(=O)N(C)SN(C)C(=O)N(C(C)C)C(C)C`
### Response 0

### Prompt Reported logP at or above 3? `CN(SN(C)C(=O)c1ccc(Cl)cc1)C(=O)Oc1cccc2c1OC(C)(C)C2`
### Response 1

### Prompt Reported logP at or above 3? `CNC(=O)ON=C(C)SC`
### Response 0

### Prompt Reported logP at or above 3? `CN(SN(C)C(=O)c1ccc(Cl)cc1Cl)C(=O)Oc1cccc2c1OC(C)(C)C2`
### Response 1

### Prompt Reported logP at or above 3? `CSC(C)=NOC(=O)N(C)SN(C)C(=O)OC1CCCCC1`
### Response 1

### Prompt Reported logP at or above 3? `CCCCN(SN(C)C(=O)O/N=C(\C)SC)C(=O)OC`
### Response 0

### Prompt Reported logP at or above 3? `CSC(C)=NOC(=O)N(C)SN(C)C(=O)ON=C(C)SC`
### Response 0

### Prompt Reported logP at or above 3? `CSC(C)=NOC(=O)N(C)SN(C)C(=O)c1ccc(Cl)cc1Cl`
### Response 1

### Prompt Reported logP at or above 3? `CSC(C)=NOC(=O)N(C)SN(C)C(=O)c1c(Cl)cccc1Cl`
### Response 0

###

# Test Name: method code SF-HPLC, from DOI: 10.1016/b978-0-08-029222-9.50040-8
Measured Property: logP
Answers are plain numbers.

1. COC(=O)N(C)SN(C)C(=O)Oc1cccc2c1OC(C)(C)C2
3
2. COC(=O)N(C)SN(C)C(=O)O/N=C(\C)SC
1.4
3. CCCCN(SN(C)C(=O)ON=C(C)SC)C(C)=O
2.4
4. CSC(C)=NOC(=O)N(C)SN(C)C(=O)c1cccc(C(F)(F)F)c1
2.5
5. CSC(C)=NOC(=O)N(C)SN(C)C(=O)c1ccccc1
2.2
6. CSC(C)=NOC(=O)N(C)SN(C)C(=O)c1ccc(Cl)cc1
2.6

Batch request: logP per item, same order as input.
1. CCCCCCOC(=O)N(C)SN(C)C(=O)ON=C(C)SC
2. CSC(C)=NOC(=O)N(C)SN(C(=O)c1ccc(C)cc1)C(C)C
3. CCN(CC)C(=O)N(C)SN(C)C(=O)ON=C(C)SC
4. CSC(C)=NOC(=O)N(C)SN(C)C(=O)c1ccccc1Cl
5. CCOC(=O)N(C)SN(C)C(=O)Oc1cccc2c1OC(C)(C)C2
6. CCCCCCCCCCOC(=O)N(C)SN(C)C(=O)ON=C(C)SC
7. CSC(C)=NOC(=O)N(C)SN(C)C(=O)C(C)C
8. CCCC(=O)N(C)SN(C)C(=O)Oc1cccc2c1OC(C)(C)C2

### Response
[4.2, 3.4, 3.2, 2.5, 3.5, 6.2, 2.2, 3.8]

Batch request: logP per item, same order as input.
1. CC(C)C(=O)N(C)SN(C)C(=O)Oc1cccc2c1OC(C)(C)C2
2. CC(=O)N(C)SN(C)C(=O)Oc1cccc2c1OC(C)(C)C2
3. CN(SN(C)C(=O)c1ccccc1)C(=O)Oc1cccc2c1OC(C)(C)C2
4. CCCCCCN(SN(C)C(=O)ON=C(C)SC)C(=O)N(C)C
5. CS/C(C)=N\OC(=O)N(C)SN(C)C(C)=O
6. CN(SN(C)C(=O)c1ccccc1Cl)C(=O)Oc1cccc2c1OC(C)(C)C2
7. CCCCN(SN(C)C(=O)Oc1cccc2c1OC(C)(C)C2)C(=O)OC

### Response
3.6
2.7
3.5
3.3
1.3
4.1
4.6

Batch request: logP per item, same order as input.
1. CCC(=O)N(C)SN(C)C(=O)ON=C(C)SC
2. CCCC(=O)N(C)SN(C)C(=O)ON=C(C)SC
3. CSC(C)=NOC(=O)N(C)SN(C)C(=O)c1cccc(Cl)c1

### Response
1.6
2.2
2.7

Entry source: the SangsterLogP compilation
